- test_description: soluble on expression in E. coli; label from the status in PepcDB or PDB records
quantity_kind: soluble on expression in E. coli

Worked examples, 6 sequences total:
{"columns": ["monomer_sequence", "recorded_measurement"],
 "data": [
  ["MQLTESLGIVLFNRNYREDDKLVKIFTEVAGKQMFFVKHISRSKMSSIIQPLTIADFIFKLNDTGLSYVVDYSNVNTYRYINNDIFRLAYASYVLALADAAIADNESDSHLFTFLKKTLDLMEEGLDYEILTNIFEIQILDRFGISLNFHECAICHRTDLPLDFSHRFSAVLCSEHYYKDNRRNHLDPNVIYLLSRFQKITFDDLRTISLNKDIKKKLRQFIDELYHDYVGIKLKSKTFIDNLVKWGDIMK", "not soluble"],
  ["MKSYLNLKEEVWDKETCSGCGACVSVCPTENIYFKQQSPVQFDCDECACIIVPTENGESPISAEFCKVTLYDVNCGACYNACPRTKERHIFNLEKVPGRVIENYKAKSTLETKNIQSGGVVTAILANAFDEDLIDGAIVMMEDKWTMDPKSYLATSKEDVLKTAGSRYNWNVPILEVLKEAVMVKKLNKIAVVGTPCVINAVYQMMATNNDLVEPFKKAIRLKISLFCFETFDYDKMLKKLKEVEVNPWDIKKMEIDKGKLIVSTIHGNVFNFKIDEMDEYVRKGCKVCRDFTGISSDISVGNVGTPEGYSTVLVRNKWGKGFFDRAVINGYVSVEGEASIDPVISLSKKKMERKDIEFLEHHHHHH", "not soluble"],
  ["MSLNCFISSYVRGNFYNRGRISAESLRASDDLIFLNVRPNKDGSLSFENPRIFENGKGVTSWEELIKSVRADVKGTKTKLRLGAASGEWKAMVADEAARVAFAKNIKKILEKNKLDGIDLDFEWAETEKEYEDYSLAILKMREVLGDKYVFSVSLHPVCYKISKEAIAAVDFISYQCYGPSPVRFPMEKYCSDIQMALAYGIPKEKLVAGVPFYGVTKDGSKKTEAYFSFVQDGLITGPAQNEVTYKGDVYVFDGQNNIRAKTRYAMDQQLKGMMSWDLATDMPLNDSRSLFKTMVEELGREGHHHHHH", "soluble"],
  ["MGSDKIHHHHHHMTIHKLKEKVASTDFEQHSYAFRRFVLDELRVYIPFAAACFTTIDPESLLSTGTVMDKQLEPIHTLILENEHTGSDYNHYFQLVDSSPHIATLHDATGGNLTASQRYTRILAPAGFHDELRAALIDQGKCWGHLTLFHSKHHSPFSREEQQLVNSLLPAITKKVKRLTFQSTFSPSPNSSHFEAAIMIFSDTFELLSANEAAHSLLSLLREQEQLGEGTFPRPIETLCVKIKATSSSKEEGEIDRWSVCIPAANGQLLTLYASKLTSELLPEQYAVISQNTSPFERLGYSLLYYGLTQREIQIVEQIVNGYTTKQISSHLYISTHTVQDHLKSIFAKMNVNSRRELLSFLNQANK", "not soluble"],
  ["AIAGSRQDPVPLSFVTLQEQRCVLSWFLGWNVAQKQRFLEDLISKAVPGKVSSLLDQLNTLQVNDRPPNIFECQLRLWTQWFDSWSEEERNAFLNCLEEKDPTFVAFFYDQVAGTAGRD", "soluble"],
  ["MKTEEELLNRMQAYCARTEHCRSEVAAKLRQAGTDELMIERLLQRLVEDRFIDEDRFARAYARDKYRFNGWGPKRIALELVKRHIPDSIIGSTLLDLEEGEDKIEDNLPRLLERKLRSIKDTDDRGRLHRLVRWAVGRGFEYEQVMREASRLLRKGYEEDS", "not soluble"]
]}

Fill in reported soluble on expression in E. coli for this entry: MSLATLQDLDLTGNTNLVLEHKTLDIFSHITTLKIDQKPLPTTDSTVTSTFWSHGLAEMAGQRNKLCVSALAMDSFAEGVGAVYGMFDGDRNEELPRLLQCTMADVLLEEVQQSTNDTVFMANTFLVSHRKLGMAGQKLGSSALLCYIRPDTADPASSFSLTVANVGTCQAVLCRGGKPVPLSKVFSLEQDPEEAQRVKDQKAIITEDNKVNGVTCCTRMLGCTYLYPWILPKPHISSTPLTIQDELLILGNKALWEHLSYTEAVNAVRHVQDPLAAAKKLCTLAQSYGCQDNVGAMVVYLNIGEEGCTCEMNGLTLPGPVGFASTTTIKEGHHHHHH soluble

Fill in reported soluble on expression in E. coli for this entry: MIDHALALTHIDERGAARMVDVSEKPVTLRVAKASGLVIMKPSTLRMISDGAAAKGDVMAAARIAGIAAAKRTGDLIPLCHPLGLDAVSVTITPCEPDRVKILATTTTLGRTGVEMEALTAVSVAALTIYDMCKAVDRAMEISQIVLQEKSGGRSGVYRRSASDLACQSR soluble

Fill in reported soluble on expression in E. coli for this entry: MGSDKIHHHHHHMWDRGLHSYRMVHATLKCGCHYLGRVPKNVKFPVDKVLDDGSYLSWIAPDRKSKHKGGTRIQVRVIEYTIDSENGQQTYRLIPSLMDIALFPALLLATEYHQRWEIENTIDELKTHLNGRKTPIRSLKPREVVQEIYGWLLSHYAVRTLMFQAATAASISPLRLGFTGTLKVIRRAIADFQDANSEQLPFFLQANSGDFGAKNPYRRYIAALTQQRDFNLLILQNRLDHRFTNGCIPVFIIPKQINNREGLLQKTEVRK not soluble

Fill in reported soluble on expression in E. coli for this entry: MNPESRVIRKVLALQNDEKIFSGERRVLIAFSGGVDSVVLTDVLLKLKNYFSLKEVALAHFNHMLRESAERDEEFCKEFAKERNMKIFVGKEDVRAFAKENRMSLEEAGRFLRYKFLKEILESEGFDCIATAHHLNDLLETSLLFFTRGTGLDGLIGFLPKEEVIRRPLYYVKRSEIEEYAKFKGLRWVEDETNYEVSIPRNRIRHRVIPELKRINENLEDTFLKMVKVLRAEREFLEEEAQKLYKEVKKGNCLDVKKLKEKPLALQRRVIRKFIGEKDYEKVELVRSLLEKGGEVNLGKGKVLKRKERWLCFSPEV soluble

Fill in reported soluble on expression in E. coli for this entry: MGKLAFLFPGQGSQAVGMGKQLAENNKEVANVFAKADEVLQDSLSEVIFEGSQEKLTLTTNAQPALLTTSFAILTALKEYDITPDFVAGHSLGEYSALVAAGALTFEDAVYAVRKRGEYMEEAVPGGEGAMAAILGADPHMLKRVTEEVTGEGYAVQIANMNSTKQIVISGTKQGVEIASQRAKENGAKRAIPLKVSGPFHSALMKPAAEKFQSVLNEITIQDTNIPVIANVTADVITSGAHIQEKLIEQLYSPVLWYPSIEYMVNQGVDTFIEIGPGKVLAGLMKSIDSSVKAYAIYDEETLKDTISNLRGEN not soluble

---

- test_description: soluble on expression in E. coli; label from the status in PepcDB or PDB records
quantity_kind: soluble on expression in E. coli

{"columns": ["monomer_sequence", "recorded_measurement"],
 "data": [
  ["MSLSALLNYKLEGSGETVVLIHGLFGSLDNLGLLARDLKNDHQVLSLDLRNHGLSFHSDEHNYALMAQDVNQLLEHLNLTSVVVIGHSMGGKVAMKLADIAAEKVRQLVVLDMSPVAYSQRRHDNVFAGLEAVLVQKPTSRSEVMAILAQHIEQEGVRQFLGKSLMSEQNVMTWRFNVAALKAHYAEILGWDIIAKCRIPTLFIKGADSDYLTTQHQPMVQAQFSQAKAHVIANTGHWLHAEKPAEVIRAIRKFIDVPVEGHHHHHH", "soluble"],
  ["MKRIITLTVVNRSGVLNRITGLFTKRHYNIESITVGHTETAGVSRITFVVHVEGENDVEQLTKQLNKQIDVLKVTDITNQSIVQRELALIKVVSAPSTRTEINGIIEPFRASVVDVSRDSIVVQVTGESNKIEALIELLKPYGIKEIARTGTTAFARGTSKRRHPIKQYLLYKTLEHHHHHH", "soluble"]
]}

---

- test_description: soluble on expression in E. coli; label from the status in PepcDB or PDB records
quantity_kind: soluble on expression in E. coli

{"columns": ["monomer_sequence", "recorded_measurement"],
 "data": [
  ["MSLKILLLEDEVMLNESICEYLDSEGHHVESFFNGLAALEAIKENSYDLLVLDINVPGIDGLSFLEKIHELKIHVSVIYISALVDIEDISRAYTLGCHDYLKKPFHLKELSLRVDRIKLSSVVPRVHLRLCKNYSYDQENSTLLFNQEVQILTKRQAQIIDLLSRNRGRIVDFEQFQTYVWSEQIVDNATIRAEINRLKKNLKEDFVINVRGMGYMIDKEGHHHHHH", "not soluble"],
  ["HHHGIRMTRISREMMKELLSVYFIMGSNNTKADPVTVVQKALKGGATLYQFREKGGDALTGEARIKFAEKAQAACREAGVPFIVNDDVELALNLKADGIHIGQEDANAKEVRAAIGDMILGVAAHTMSEVKQAEEDGADYVGLGPIYPTETKKDTRAVQGVSLIEAVRRQGISIPIVGIGGITIDNAAPVIQAGADGVSMISAISQAEDPESAARKFREEIQTYKTGR", "soluble"],
  ["MAHHHHHHMGGPPRKREREGEALKPKSKEEQLPIKNECTLDRREGKQIVAEKWSEVVVDDNESQERSNESVSESQVYDTEEELLAAGEDLSGDALKDFLRKNFVDFIDEKVARVGDLDLMN", "not soluble"],
  ["MAKYSEQFKLTVVKAYLAGNIGFRKVSSQFSIDSSLLRRWVANYKSHGHTGHRKPGLRYSEAFKRSVLEHKREHGLSLRQTAAHFGIGDPGQIVIWEQQHYSNDLAPYVPKRRKSVAMPKKPYPTAPVIDDDTQKTRDQLMAELEYLRMENAYLKKLEELKEQQRRQKKKPLEHHHHHH", "soluble"],
  ["MGSDKIHHHHHHMAEINYQLIDFDNRGDLGLKNEPFELFGRMKIDRLNNNWSYEVEIFTHKRTMAFPDERYHLQEINQNGFALGAYDDSNCVGLAIYQKHWNKYLYLKDLKVNRDHRKLGIGNQLIKEGLRRAVQLGYKGVYAVCQDNNLAACQFYLKIGFQIGGFNDFDYNYTTQSGKSDIYFYLDKNSAR", "not soluble"]
]}

Fill in reported soluble on expression in E. coli for this entry: MNLPDGTQLVVGRQLAKVKSNQNWIRIPEYKVRGNKVIISHLWVGSINMPRRPFWSFRELWEKHLGRKDAINVWSRIRSYNTQVLLKILELLEKEPETQAKKLVKRATMHQLRNIAESFEEL not soluble

Fill in reported soluble on expression in E. coli for this entry: LFEMGLQRYLESGLRNESENLLVALVRGPAGLQLDDHRLSGAYQRPLSGHYFRMDLPQGHWRSRSLWDFELPQPGVGLHANLELGKTVQSLLMLTSEYRKFGKQISITVAQDYTPVRASFR not soluble

Fill in reported soluble on expression in E. coli for this entry: MSLKQILNHARIVLADRVIDNGALEINDGRIAAIHEHALPDGEDLAGALLLPGLVEIHTDNLEKHLMPRNGVLWPILPAVITHDAQCVAAGITTVLDALAVGDLEGESVRLDTLHSSFDAINQGMREGALRADHFFHLRCELAYPGLLDELEALIAHPAVKLVSVMDHTPGQRQYRDLEQYKKYYGKKKVGWNEDTFLAAVAERKTKQAQYAGRHKQAVVELAQARGIALASHDDTDEAHIEEALRDGVAISEFPTTREAAAAAKRHGLATVMGAPNVVRGGSHSGNVAALELARHDLLDILSSDYVPASLLHGAWLLHAQAGWSLPRAVAAVSLNPAHSVGLADRGDIAVGQRADLVAMIVHGDVPLVRQVWNSGRRVFEGHHHHHH soluble

Fill in reported soluble on expression in E. coli for this entry: NKDNLDLAGLTSLLSEKIKEFLQEKKMQSFYQQELETVESLQSLASRPVTHSTGSDQVELKDSGTSGVAQRVFKNALQLLQEKGLVFQRDSGSDKLYYVTTKDKDLQ soluble
